assayed system: T1, human LAIR1 extracellular domain (ECD) protein with 6 HIS tag at the C-terminus (human, UniProt Q6GTX8 22-165)
T1 construct: Produced recombinantly in HEK293 cells; the whole entry is named here; also called LAIR1 ECD; LAIR1-ECD
T1 chain: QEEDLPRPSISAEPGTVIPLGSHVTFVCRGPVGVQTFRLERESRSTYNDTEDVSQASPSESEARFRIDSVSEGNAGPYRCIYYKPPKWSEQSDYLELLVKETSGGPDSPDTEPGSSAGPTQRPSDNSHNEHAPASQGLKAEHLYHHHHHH
assay notes: ELISA, LAIR1 ECD coated, mAb titrated, anti-rabbit HRP
Procedure: The inventors then used a concentration titration (0-10 μg/ml) by ELISA to determine the LAIR1 monoclonal antibody (mAbs) binding to human LAIR1 ECD. […] For FIGS. 2-39, X axis indicates the antibody concentrations and Y-axis is binding signals, measured as OD (450 nm). […] Serial diluted (3-fold) LAIR1 mAb was added to the coated/blocked plates and detected using goat anti-rabbit F(ab′)2 conjugated HRP as secondary antibody. […]
EC50 listing for selected binders.

LA-121 (antibody, V domains shown, Rabbit monoclonal IgG) VH: EQSVEESGGRLVTPGTPLTLTCTASGFSLYKYNIQWVRQAPGKGLEYIGASTYAGYTYYASWAIGRVTISRTSTTVDLKMTSPTTEDTATYFCARHIDGDYSGYALWGPGTLVTISS VL: ELDLTQTPASVSAAVGGTVTIKCQASQSIDTWFGWYQQKPGQSPKLLIYGASKLASGVPPRFKGSGSGTEFTLTISDLECADAATYYCQNTYYGVRYLGGAFGGGTEVEIK | 0.21 nM
LA-259-1 (antibody, V domains shown, Rabbit monoclonal IgG) VH: QSVKESGGRLVTPGTPLTLTCTASGFSLYKYNIQWVRQAPGKGLEYIGASTYAGYTYYASWAKGRVTISRTSTTVDLKMTSPTTEDTATYFCARHIDGDYSGYALWGPGTLVTISS VL: ELVLTQTPASVSAAVGGTVTIKCQASQSIGTWFAWYQQKPGQSPKLLIYGPSKLASGVPPRFKGSGSGTEFTLTISDLECADAATYYCQSTYFGVDYLGGTFGGGTEVVVK | 0.23 nM

Okay, next one:
The binder LA-235 (antibody, V domains shown, Rabbit monoclonal IgG; Called an antagonist antibody) VH: SSSVEESEGRLVTPGTPLTLTCTVSGFSLSSYTMGWVRQAPGEGLEWIGTTSNDGSTYYASWAKGRFTISKTSSTTVDLMMTSLTTEDTATYFCVRGTNIRSLWGPGTLVTISS VL: ELVMTQTPASVEAAVGGTVTIKCQASQSIGSNLAWYQQKPGQPPKLLIYLASALASGVSSRFKGSGSGSDFTLTISDLECADAATYYCQCTYGSSNNNNYGDPFGGGTEVEIK showed EC50 equal to 0.03 nM
